Value source: patent US8853213B2

Property: pEC50; scope: individual compounds
target.or.system: GPR119 (Homo sapiens, UniProt Q8TDV5)
Sequence (Q8TDV5 whole entry): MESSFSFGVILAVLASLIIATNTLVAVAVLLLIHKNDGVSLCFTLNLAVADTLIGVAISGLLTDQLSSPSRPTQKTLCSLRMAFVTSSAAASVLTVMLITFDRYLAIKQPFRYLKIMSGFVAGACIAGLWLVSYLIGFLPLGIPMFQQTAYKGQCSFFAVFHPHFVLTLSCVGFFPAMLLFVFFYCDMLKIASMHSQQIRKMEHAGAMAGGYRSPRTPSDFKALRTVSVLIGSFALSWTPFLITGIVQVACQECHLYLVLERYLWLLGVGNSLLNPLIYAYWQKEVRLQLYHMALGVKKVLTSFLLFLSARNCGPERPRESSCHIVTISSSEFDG
method.notes: Controlling Effect of GPR119 in CRE-bla CHO-K1 Cells (EC50)
applied.conditions: GPR119 CRE-bla CHO-K1 cell line, 5 hr incubation with compound, β-lactamase LiveBLAzer-FRET B/G readout; read-out: controlling effect against GPR119 in CRE-bla CHO-K1 cell line (EC50)
pEC50: −log10 of the molar value.

# compound, reported.property, val
data = [
    ("CCc1cnc(N2CCC(Oc3ncnc4c(-c5ccc(S(C)(=O)=O)cc5)csc34)C2)nc1 (stereo not drawn)", "pEC50", "> 7.00"),
    ("COc1ccc(-c2csc3c(OC4CCN(c5nc(C(C)C)no5)CC4)ncnc23)cc1F", "pEC50", "< 6.00"),
    ("CS(=O)(=O)c1ccc(-c2csc3c(OC4CCN(c5nc(C6CCC6)no5)CC4)ncnc23)cc1", "pEC50", "> 7.00"),
    ("CCC(C)c1noc(N2CCC(Oc3ncnc4c(-c5ccc(S(C)(=O)=O)cc5F)csc34)CC2)n1 (stereo not drawn)", "pEC50", "> 7.00"),
    ("CS(=O)(=O)c1ccc(-c2csc3c(OC4CCN(c5nc6ccccc6o5)CC4)ncnc23)c(F)c1", "pEC50", "> 7.00"),
    ("CCc1noc(C2CCN(c3ncnc4c(-c5ccc(S(C)(=O)=O)cc5)csc34)CC2)n1", "pEC50", "6.00 to 7.00"),
    ("CS(=O)(=O)c1ccc(-c2csc3c(N4CCC(c5nc(C6CCCC6)no5)CC4)ncnc23)cc1", "pEC50", "> 7.00"),
    ("CC(C)c1noc(N2CCC(Oc3ncnc4c(-c5ccc(F)c(F)c5F)csc34)CC2)n1", "pEC50", "< 6.00"),
    ("CC(C)c1noc(C2CCN(c3ncnc4c(-c5ccc([N+](=O)[O-])cc5)csc34)CC2)n1", "pEC50", "< 6.00"),
    ("CS(=O)(=O)c1ccc(-c2csc3c(OC4CCNCC4)ncnc23)c(F)c1", "pEC50", "< 6.00"),
]

compound CCc1cnc(N2CCC(N(C)c3ncnc4c(-c5ccc(S(C)(=O)=O)cc5)csc34)CC2)nc1 , pEC50 observed: < 6.00

// sample COc1ccc(-c2csc3c(OC4CCN(c5nc(C(C)C)no5)CC4)ncnc23)c(Cl)c1 , its pEC50 was > 7.00

Form: compound = CS(=O)(=O)c1ccc(-c2csc3c(OC4CCN(c5nc(-c6cccnc6)no5)CC4)ncnc23)c(F)c1 ; pEC50 = > 7.00

Memo: CCc1cnc(N2CCC(COc3ncnc4c(-c5ccc(S(C)(=O)=O)cc5)cn(C)c34)CC2)nc1 , reported pEC50: 6.00 to 7.00

CC(C)c1nc(N2CCC(Oc3ncnc4c(-c5ccc(S(C)(=O)=O)cc5F)csc34)CC2)no1 has a reported pEC50 of > 7.00

Per the record, CC(C)c1noc(N2CCC(Oc3ncnc4c(-c5ccc(OC(F)(F)F)cc5)csc34)CC2)n1 has pEC50 of 6.00 to 7.00

Summary for this compound, CCc1cnc(N2CCC(Oc3ncnc4c(-c5ccc(N)cc5)cn(C)c34)CC2)nc1 : pEC50 is < 6.00

Memo: CS(=O)(=O)c1ccc(-c2csc3c(OC4CCN(c5nc(-c6cnccn6)no5)CC4)ncnc23)c(F)c1 , reported pEC50: 6.00 to 7.00
